B1: HDV Ribozyme (parent)
chain: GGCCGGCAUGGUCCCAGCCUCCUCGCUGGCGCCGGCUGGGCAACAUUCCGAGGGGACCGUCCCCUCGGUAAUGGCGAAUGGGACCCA

- Variants of: B1
- measurement description: self-cleavage, relative activity (ratio to wild type); higher = more cleavage; co-transcriptional
quantity kind: self-cleavage

Worked set:
GGCCGGCAUGGUCCCAGCCUGCUCGCUGGCGCCGGCUGGGAAACAUUCCGAGGGGACCGUCCCCUCGGUAAUGGCGAAUGGGACCCA : 0.0573
GGCCGGCAUGGUCCCAGCCUCCUCGCUGGCGCCGGCUGGGCACCAUUUCGAGGGGACCGUCCCCUCGGUAAUGGCGAAUGGGACCCA : 0.619
GGCCGGAAUGGUCCCAGCCUCCUCGCUGGCGCCGGCUGGGCAACAUUCCGCGGGGACCGUCCCCUCGGUAAUGGCGAAUGGGACCCA : 0.609
UGCCGGCAUGGUCCCAGCCUCCUCGCUGGCGCGGGCUGGGCAACAUUCCGAGGGGACCGUCCCCUCGGUAAUGGCGAAUGGGACCCA : 0.248
GGCCGGCAUGCGCCCAGCCUCCUCGCUGGCGCCGGCUGGGCAACAUUCCGAGGGGACCGUCCCCUCGGUAAUGGCGAAUGGGACCCA : 0.123
GGCCGGCAUGGUCCCAGCCCCCUCGCUGGCGCCGGCUGGCCAACAUUCCGAGGGGACCGUCCCCUCGGUAAUGGCGAAUGGGACCCA : 0.0396
GGCCGGCAUGAUCCCAGCCUCCUCGCUGGCGCCGGCUGGGCAACAUUCCGAGGGGACCGUCCCCUCUGUAAUGGCGAAUGGGACCCA : 0.237
GGCCGGCAUGGUACCAGCCUCCUCGCUGGCGCCGGCUGGGCAACAUUCCGAGGAGACCGUCCCCUCGGUAAUGGCGAAUGGGACCCA : 0.117

Give self-cleavage for GGCCUGCAUGGUCCCAGCCUCCUCGCUGGCGCCGGCUGGGCAACAUUCCGAGGGGACCGUCCCCUCGGUAAUGGAGAAUGGGACCCA
0.101

Answer with the recorded self-cleavage for the variant listed here: GGCCGGCGUGGUCCCAGCCUCCUCGCUGGCGCCGGCUGGGCAACAUUCCGAGGGGACCGUCCCCUCGGUAAUGGCGAAUGGGAGCCA
0.396

Name the recorded self-cleavage of the variant listed here: GGCCGGCAUGGUCCCAACCUCCUCGCUGGCGCCCGCUGGGCAACAUUCCGAGGGGACCGUCCCCUCGGUAAUGGCGAAUGGGACCCA
0.0594

Dear colleague, please send me the reported self-cleavage for GGCCGGCAUGGUCCCAGCCUCCUCGCUGGCGCCGGCUGGGCAACAUUCCGAGGGGAGGGUCCCCUCGGUAAUGGCGAAUGGGACCCA when you can.
0.943

Consider the variant GGCCGGCAUGGUCCCAGUCUCCUCGCUGGCGCCGGCUGGGCAACAUUCCGAGGGGACCGCCCCCUCGGUAAUGGCGAAUGGGACCCA . State its measured self-cleavage.
0.7

Please give measured self-cleavage of the following entry: GCCCGGCAUGGUACCAGCCUCCUCGCUGGCGCCGGCUGGGCAACAUUCCGAGGGGACCGUCCCCUCGGUAAUGGCGAAUGGGACCCA
0.0707

Read off the recorded self-cleavage for GGCCGGCAUGGUCCCCGCCUCCUCGCUGGCGCCGGCUGGGCAACAUGCCGAGGGGACCGUCCCCUCGGUAAUGGCGAAUGGGACCCA
0.185

Output measured self-cleavage for this item: GGCCGGCAAGGUCCCAGCCUCCUCGCUGGCGCAGGCUGGGCAACAUUCCGAGGGGACCGUCCCCUCGGUAAUGGCGAAUGGGACCCA
0.185

Fill in reported self-cleavage for this entry: GGCCGGCAUGGUCCCAGCCUCCUCGCUGGCGGCGGCUGGGCAACAUUCCGAGGGGACCGUCUCCUCGGUAAUGGCGAAUGGGACCCA
0.117
